In this section we review reported pIC50 values for a set of compounds.
- target of assay: Serine/threonine-protein kinase pim-2 (Homo sapiens, UniProt Q9P1W9)
- Sequence (Q9P1W9 whole entry): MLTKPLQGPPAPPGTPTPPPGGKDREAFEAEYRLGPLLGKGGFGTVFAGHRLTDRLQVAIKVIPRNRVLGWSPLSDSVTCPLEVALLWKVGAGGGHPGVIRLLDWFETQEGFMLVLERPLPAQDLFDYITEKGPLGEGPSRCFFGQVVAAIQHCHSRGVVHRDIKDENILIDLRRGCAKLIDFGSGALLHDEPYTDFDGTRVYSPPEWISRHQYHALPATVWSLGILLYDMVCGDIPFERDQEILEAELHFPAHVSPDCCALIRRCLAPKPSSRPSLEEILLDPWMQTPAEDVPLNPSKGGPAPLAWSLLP
- assay explanation: Inhibition of Pim2
Just so you know, pIC50 here is -log10 of the concentration in molar units; reply with that number alone.

O=C(O)/C=C/c1cccc(-c2cnccn2)c1 = 5.66
NCC1CCN(c2cncc(-c3cccc(/C=C/C(=O)O)c3)n2)CC1 = 7.77
O=C(O)/C=C/c1cccc(-c2cncc(NCC3CCNCC3)n2)c1 = 7.60

## Input Form field: reported pIC50 of CN1CCCN(c2cccc(-c3cccc(/C=C/C(=O)O)c3)n2)CC1
## Output 7.34

## Input Form field: reported pIC50 of O=C(O)/C=C/c1cccc(-c2cncc(N3CCCNCC3)n2)c1
## Output 8.00

----------
- assay explanation: Solubility at pH 7.4 after 48 hrs by HPLC
- Type: physicochemical
- settings: buffer
quantity kind: solubility at 48 h

## Input Form field: reported solubility at 48 h of CN1CCCN(c2cncc(-c3cccc(/C=C/C(=O)O)c3)n2)CC1
## Output > 2000 µg/mL

----------
- assay explanation: Solubility at pH 2.0 after 48 hrs by HPLC
- Assay type: physicochemical
- settings: buffer
quantity kind: solubility at 48 h

## Input Form field: reported solubility at 48 h of CN1CCCN(c2cncc(-c3cccc(/C=C/C(=O)O)c3)n2)CC1
## Output > 2000 µg/mL

----------
- assay explanation: Permeability from apical to basolateral side of human Caco-2 cells at 50 uM by LC/MS-MS analysis
- Format: ADME, cell-based
- settings: read-out: permeability
quantity kind: Papp A→B at 50 µM (×10⁻⁶ cm/s)
Lab book: enter the figure in ×10⁻⁶ cm/s, no units written.

## Input Form field: reported Papp A→B at 50 µM of CN1CCCN(c2cncc(-c3cccc(/C=C/C(=O)O)c3)n2)CC1
## Output 2.73
